# Gag-Pol polyprotein (Moloney murine leukemia virus isolate Shinnick): ID50 values follow

{"columns": ["structure", "target_of_assay", "ID50"],
 "data": [
  ["N=C(N)Nc1ccc(-c2cc3cc(NC(=N)N)ccc3o2)cc1", "Gag-Pol polyprotein (Moloney murine leukemia virus isolate Shinnick)", "8 µg/mL"],
  ["N=C(N)Nc1ccc(-c2cc3ccc(NC(=N)N)cc3s2)cc1", "Gag-Pol polyprotein (Moloney murine leukemia virus isolate Shinnick)", "6 µg/mL"],
  ["N=C(N)c1ccc(/C=C/c2cc3cc(C(=N)N)ccc3o2)cc1", "Gag-Pol polyprotein (Moloney murine leukemia virus isolate Shinnick)", "8 µg/mL"],
  ["N=C(N)c1ccc(/C=C/c2cc3ccc(C(=N)N)cc3[nH]2)cc1", "Gag-Pol polyprotein (Moloney murine leukemia virus isolate Shinnick)", "6 µg/mL"],
  ["N=C(N)c1ccc(-c2ccc(-c3ccc(C(=N)N)cc3)s2)cc1", "Gag-Pol polyprotein (Moloney murine leukemia virus isolate Shinnick)", "1.2 µg/mL"]
]}

Report ID50 on Gag-Pol polyprotein (Moloney murine leukemia virus isolate Shinnick) for this entry: `c1cc(Oc2ccc(-c3cc4ccc(C5=NCCN5)cc4[nH]3)cc2)cc(C2=NCCN2)c1` 3 µg/mL

Give Gag-Pol polyprotein (Moloney murine leukemia virus isolate Shinnick) ID50 for the following compound: `N=C(N)c1cccc(-c2cc3ccc(C(=N)N)cc3s2)c1` 8 µg/mL

Send back Gag-Pol polyprotein (Moloney murine leukemia virus isolate Shinnick) ID50 of `N=C(N)c1ccc2cc(C(=N)N)[nH]c2c1` only. 70 µg/mL

Write down the reported ID50 (system: Gag-Pol polyprotein (Moloney murine leukemia virus isolate Shinnick)) of `N=C(N)c1ccc2oc(-c3ccc(N)cc3)cc2c1` 270 µg/mL

Give Gag-Pol polyprotein (Moloney murine leukemia virus isolate Shinnick) ID50 for the following compound: `C(/C=C/c1cc2cc(C3=NCCN3)ccc2o1)=C\c1ccc(C2=NCCN2)cc1` 4 µg/mL

# assay system Gag-Pol polyprotein (Moloney murine leukemia virus isolate Shinnick): give ID50 of `N=C(N)c1ccc2cc(/C=C/c3cc4ccc(C(=N)N)cc4o3)oc2c1` 1.6 µg/mL

Give ID50 for `N=C(N)c1ccc(-c2c[nH]c(-c3ccc(C(=N)N)cc3)n2)cc1` tested on Gag-Pol polyprotein (Moloney murine leukemia virus isolate Shinnick). 10 µg/mL

Give ID50; test system Gag-Pol polyprotein (Moloney murine leukemia virus isolate Shinnick); compound `Cc1c(/C=C/c2oc3ccc(C(=N)N)cc3c2C)oc2ccc(C(=N)N)cc12` 8 µg/mL

Look up and report ID50, with Gag-Pol polyprotein (Moloney murine leukemia virus isolate Shinnick) as system, for `CCN(CC)CCOc1ccc2c(c1)C(=O)c1cc(OCCN(CC)CC)ccc1-2` 75 µg/mL

Provide ID50, system Gag-Pol polyprotein (Moloney murine leukemia virus isolate Shinnick), entry `N=C(N)Nc1ccc(-c2cc3cc(NC(=N)N)ccc3s2)cc1` 11 µg/mL

Give reported ID50 for `N=C(N)c1ccc2[nH]c(/C=C/c3cc4cc(C(=N)N)ccc4o3)cc2c1` (Gag-Pol polyprotein (Moloney murine leukemia virus isolate Shinnick)) 1.4 µg/mL

For Gag-Pol polyprotein (Moloney murine leukemia virus isolate Shinnick), give the measured ID50 of the entry `CC[n+]1c(-c2ccccc2)c2cc(N)ccc2c2ccc(N)cc21` 1.2 µg/mL

GET ID50 | system: Gag-Pol polyprotein (Moloney murine leukemia virus isolate Shinnick) | item: `N=C(N)c1ccc(/C=C/C=C/c2cc3cc(C(=N)N)ccc3o2)cc1` 0.9 µg/mL

# return ID50 for `c1cc(-c2cc3cc(C4=NCCN4)ccc3s2)ccc1C1=NCCN1` , test system: Gag-Pol polyprotein (Moloney murine leukemia virus isolate Shinnick) 2.8 µg/mL

Provenance of the data: ChEMBL document CHEMBL1121476
